Assay: Toxicity liver stage against HepG2, at 10uM
Type: cell-based
Set-up: test concentration 10 uM, cell line HepG2-A16-CD81EGFP
Details: human, HepG2-A16-CD81EGFP cells; read-out: INHIBITION
I'd appreciate it if you could supply cytotoxicity at 10 µM values for the items below.
Write the answer as a number in %, unit excluded.

Q: Entry COC(=O)NCC(=O)N(C)Cc1csc(C)n1 needs its cytotoxicity at 10 µM filled in; supply it.
Ans: 2.33

Q: Entry Cc1cccn2c(CC(=O)N3CCC(Oc4ncccn4)CC3)cnc12 needs its cytotoxicity at 10 µM filled in; supply it.
Ans: 6.78

Q: Entry CCn1c(=NC(=O)CSCC(=O)Nc2nccs2)sc2ccccc21 needs its cytotoxicity at 10 µM filled in; supply it.
Ans: -2.17

Q: Entry CN(C)c1ncnc2c1CCN(C(=O)c1cccnc1)CC2 needs its cytotoxicity at 10 µM filled in; supply it.
Ans: -79.8

Q: Entry CCOc1ccc(OCC)c(NCc2cc(C)on2)c1 needs its cytotoxicity at 10 µM filled in; supply it.
Ans: -40.1

Q: Entry Cc1ccc(S(C)(=O)=O)cc1C(=O)NS(C)(=O)=O needs its cytotoxicity at 10 µM filled in; supply it.
Ans: -11.4

Q: Entry O=C(Nc1ccnc(OC2CCOC2)c1)c1cc(F)ccc1F (stereo not drawn) needs its cytotoxicity at 10 µM filled in; supply it.
Ans: 5.87

Q: Entry NC(=O)CS(=O)(=O)Cc1csc(-c2ccccc2)n1 needs its cytotoxicity at 10 µM filled in; supply it.
Ans: -9.59

Q: Entry Cc1cc(C(=O)N[C@@H]2CCC[C@@H](N3CCOCC3)[C@@H]2O)no1 needs its cytotoxicity at 10 µM filled in; supply it.
Ans: -1.61

Q: Entry CC(Nc1ccc(F)cc1)c1nnnn1-c1ccccc1 (stereo not drawn) needs its cytotoxicity at 10 µM filled in; supply it.
Ans: 1.81

Q: Entry CC(C)n1[nH]c(=O)c2c1NC(=O)CSC2C1CCCCC1 (stereo not drawn) needs its cytotoxicity at 10 µM filled in; supply it.
Ans: -4.56

Q: Entry Cc1ccc(C)c(OC(C)C(=O)Nc2cccnc2)c1 (stereo not drawn) needs its cytotoxicity at 10 µM filled in; supply it.
Ans: 7.39

Q: Entry Cc1ccc(N2CCc3sc(C(=O)NCCN4CCCC4)cc32)nn1 needs its cytotoxicity at 10 µM filled in; supply it.
Ans: -2.19

Q: Entry Cc1ncc(-c2ccnc(NCCO)n2)c(C2CCCCC2)n1 needs its cytotoxicity at 10 µM filled in; supply it.
Ans: -11

Q: Entry CCc1cc(C(=O)N2Cc3ccccc3OC3(CCOCC3)C2)on1 needs its cytotoxicity at 10 µM filled in; supply it.
Ans: -9.54

Q: Entry Cc1nn(C(C)C)c(C)c1CN1CCC(c2cc(C(C)C)n[nH]2)CC1 needs its cytotoxicity at 10 µM filled in; supply it.
Ans: 1.34

Q: Entry CCOC1CCN(C(=O)c2cnn(-c3ccccc3Cl)c2)CC1 needs its cytotoxicity at 10 µM filled in; supply it.
Ans: -9.78

Q: Entry COCCN1CCN(Cc2ccoc2)Cc2cccnc21 needs its cytotoxicity at 10 µM filled in; supply it.
Ans: -75

Q: Entry Cc1nc(C)n(CC2CCCN2Cc2nc(N)c3ccccc3n2)n1 (stereo not drawn) needs its cytotoxicity at 10 µM filled in; supply it.
Ans: -0.192

Q: Entry Cc1ccc(N2CCCN(C(=O)C3(C#N)CCCCC3)CC2)nn1 needs its cytotoxicity at 10 µM filled in; supply it.
Ans: -7.7

Q: Entry COCc1cn(CC2CCN(Cc3nc(C)c[nH]3)CC2)nn1 needs its cytotoxicity at 10 µM filled in; supply it.
Ans: 0.622

Q: Entry Cc1nc2c(c(N3CCC(CN4CCCC4=O)CC3)n1)CCNCC2 needs its cytotoxicity at 10 µM filled in; supply it.
Ans: 8.64

Q: Entry CC(=O)N1CCc2[nH]nc(C(=O)N3CC=CC3)c2C1 needs its cytotoxicity at 10 µM filled in; supply it.
Ans: -108

Q: Entry CC(C)OCCN(C)CC(c1cccs1)N1CCOCC1 (stereo not drawn) needs its cytotoxicity at 10 µM filled in; supply it.
Ans: -4.34

Q: Entry COc1cccc2c1OCC(NCc1cnn(-c3ccccc3)c1)C2 (stereo not drawn) needs its cytotoxicity at 10 µM filled in; supply it.
Ans: -0.517

Q: Entry O=C(O)CCC(=O)Nc1nn(Cc2ccccc2Cl)cc1Cl needs its cytotoxicity at 10 µM filled in; supply it.
Ans: 7

Q: Entry Cc1csc(C(=O)NCCN2CCC(c3cccs3)CC2)c1 needs its cytotoxicity at 10 µM filled in; supply it.
Ans: 2.03

Q: Entry Cc1ccc(S(=O)(=O)NCC2(O)CCOc3ccccc32)s1 (stereo not drawn) needs its cytotoxicity at 10 µM filled in; supply it.
Ans: 5.33

Q: Entry CCCOC(=O)N1CCCC(c2nnc(CN3CCOCC3)n2C)C1 (stereo not drawn) needs its cytotoxicity at 10 µM filled in; supply it.
Ans: 2.19

Q: Entry CC(C)(C)c1cn(C[C@H]2CC3CCN2C[C@@H]3C(=O)NC2CC2)nn1 (stereo partly drawn) needs its cytotoxicity at 10 µM filled in; supply it.
Ans: 9.46

Q: Entry COCc1ncc(CN(Cc2ccncc2)Cc2ccc(C)s2)cn1 needs its cytotoxicity at 10 µM filled in; supply it.
Ans: -47

Q: Entry Cc1cc(CNc2ccc(C(=O)N3CCc4ccccc43)cn2)on1 needs its cytotoxicity at 10 µM filled in; supply it.
Ans: -0.0529

Q: Entry Cc1nnc(CN(Cc2ccccc2C(F)(F)F)C2CC2)o1 needs its cytotoxicity at 10 µM filled in; supply it.
Ans: 8.32

Q: Entry O=C(NCCc1ccccn1)NC1CCN(c2ncccn2)CC1 needs its cytotoxicity at 10 µM filled in; supply it.
Ans: -16.3

Q: Entry COCC(=O)NCCn1nc(-c2cc(C)oc2C)ccc1=O needs its cytotoxicity at 10 µM filled in; supply it.
Ans: -1.74

Q: Entry CC(C)CC(C)NCc1cccnc1N1CCN(c2ccccn2)CC1 (stereo not drawn) needs its cytotoxicity at 10 µM filled in; supply it.
Ans: 0.997

Q: Entry CS(=O)(=O)c1ccc(NC(=O)NC2(c3cccc(F)c3)CC2)cc1 needs its cytotoxicity at 10 µM filled in; supply it.
Ans: 2.93

Q: Entry CN(C)c1nccc(NCc2cc(-c3ccco3)n[nH]2)n1 needs its cytotoxicity at 10 µM filled in; supply it.
Ans: 2.27

Q: Entry CC(C)[C@@H](N)C(=O)NCc1cccnc1N1CCc2ccccc2C1 needs its cytotoxicity at 10 µM filled in; supply it.
Ans: 11

Q: Entry CC(Nc1ccc(CCN2CCCCC2)cc1)C(=O)N(C)CCC#N (stereo not drawn) needs its cytotoxicity at 10 µM filled in; supply it.
Ans: 7.61

Q: Entry COC(=O)c1ccc(S(=O)(=O)N(C)CC(N)=O)c(Cl)c1 needs its cytotoxicity at 10 µM filled in; supply it.
Ans: -1.65

Q: Entry CN1C(=O)CC[C@@H]2N(C(=O)CCc3cccnc3)CCCC[C@@]21C needs its cytotoxicity at 10 µM filled in; supply it.
Ans: 3.82

Q: Entry Cc1nsc(C(=O)N2CCc3ccccc3C2)n1 needs its cytotoxicity at 10 µM filled in; supply it.
Ans: 5.86

Q: Entry CS(=O)(=O)NCc1cc2n(n1)CCCN(Cc1nc3ccccc3[nH]1)C2 needs its cytotoxicity at 10 µM filled in; supply it.
Ans: -4.55

Q: Entry Cc1nn(C)c(N(C)C)c1CNCCC(=O)NC1CCCCC1 needs its cytotoxicity at 10 µM filled in; supply it.
Ans: -13.4

Q: Entry O=C(CN1CCOC(Cn2cccn2)C1)Nc1nncs1 (stereo not drawn) needs its cytotoxicity at 10 µM filled in; supply it.
Ans: 4.79

Q: Entry OC1(c2cn(CC3CCN(C4CCSC4)CC3)nn2)CCCC1 (stereo not drawn) needs its cytotoxicity at 10 µM filled in; supply it.
Ans: 0.445

Q: Entry O=C(C1CCC2(CCN(c3nncs3)CC2)C1)N1CCCC1 (stereo not drawn) needs its cytotoxicity at 10 µM filled in; supply it.
Ans: 9.43
